// reported log10 Kb for each item listed
- assayed target: 5-HT M-receptor (Oryctolagus cuniculus, UniProt A0A5F9C9J3)
- Construct: determining their pA2 values in the isolated rabbit heart; from tissue; host or cells: isolated rabbit heart (receptor on the cardiac neurones)
- Sequence (A0A5F9C9J3 1-494): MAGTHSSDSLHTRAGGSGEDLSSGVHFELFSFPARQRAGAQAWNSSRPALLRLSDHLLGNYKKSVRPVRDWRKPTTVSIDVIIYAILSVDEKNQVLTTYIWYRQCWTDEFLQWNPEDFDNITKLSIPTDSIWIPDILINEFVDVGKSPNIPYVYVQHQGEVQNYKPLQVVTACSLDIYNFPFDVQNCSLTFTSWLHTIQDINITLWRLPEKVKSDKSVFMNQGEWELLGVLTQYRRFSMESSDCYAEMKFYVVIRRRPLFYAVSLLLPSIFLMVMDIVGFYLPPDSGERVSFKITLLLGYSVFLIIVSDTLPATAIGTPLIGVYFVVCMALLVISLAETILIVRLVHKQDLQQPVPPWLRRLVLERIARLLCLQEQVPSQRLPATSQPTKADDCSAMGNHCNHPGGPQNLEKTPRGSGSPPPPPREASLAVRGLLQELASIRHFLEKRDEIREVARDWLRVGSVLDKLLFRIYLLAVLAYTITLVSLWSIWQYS
- protocol description: pA2 against 5-HT in isolated rabbit heart
- Format: cell-based
- settings: isolated rabbit heart; negative log of molar concentration of antagonist reducing effect of twice the ED50 of 5-HT to that of the ED50; read-out: pA2 5-HT (converted)
Friendly reminder: values = log10 of Kb, unit nM.

Worked examples follow.
| compound | assayed target | log10 Kb |
| --- | --- | --- |
| Cc1ccc(C(=O)O[C@H]2C[C@H]3CC[C@@H](C2)N3C)cc1 [tropyl 4-methylbenzoate, reference compound] | 5-HT M-receptor (Oryctolagus cuniculus, UniProt A0A5F9C9J3) | 1.20 |
| Cc1cccc(C(=O)O[C@H]2C[C@H]3CC[C@@H](C2)N3C)c1 [tropyl 3-methylbenzoate] | 5-HT M-receptor (Oryctolagus cuniculus, UniProt A0A5F9C9J3) | 0.80 |
| CN1[C@@H]2CC[C@H]1C[C@@H](OC(=O)c1ccc(Cl)cc1)C2 [tropyl 4-chlorobenzoate, reference compound] | 5-HT M-receptor (Oryctolagus cuniculus, UniProt A0A5F9C9J3) | 2.00 |
| O=C(O[C@H]1C[C@H]2CC[C@@H](C1)N2)c1cc(Cl)cc(Cl)c1 [nortropyl 3,5-dichlorobenzoate, reference compound] | 5-HT M-receptor (Oryctolagus cuniculus, UniProt A0A5F9C9J3) | 1.20 |
| CN1[C@@H]2CC[C@H]1C[C@@H](OC(=O)c1ccccc1)C2 [tropylbenzoate, reference compound] | 5-HT M-receptor (Oryctolagus cuniculus, UniProt A0A5F9C9J3) | 1.80 |
| CN1[C@@H]2CC[C@H]1C[C@@H](OC(=O)c1cccc(Cl)c1)C2 [tropyl 3-chlorobenzoate] | 5-HT M-receptor (Oryctolagus cuniculus, UniProt A0A5F9C9J3) | 0.40 |

Value of log10 Kb reported for the compound Cc1cc(C)cc(C(=O)O[C@H]2C[C@H]3CC[C@@H](C2)N3C)c1 [tropyl 3,5-dimethylbenzoate] is 0.00

Origin of values: patent US4585866A
